target: CD3ε homodimer protein (human, UniProt P07766 23-126, limits assumed); test: SPR, immobilized CD3ε homodimer;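 further: biacore T200 surface plasmon resonance at 25 °C, antibody variants flowed as analytes over amine-coupled CD3ε homodimer on a CM4 chip, variant binding amount divided by that of GLS3000 antibody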
Sequence (P07766 23-126 limits assumed): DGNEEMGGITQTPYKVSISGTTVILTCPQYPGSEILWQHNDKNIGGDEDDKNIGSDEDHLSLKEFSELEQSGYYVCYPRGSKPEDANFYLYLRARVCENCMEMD
Rule: ratio of amounts bound (vs GLS3000) under 0.4 gives label 0, otherwise label 1.

Reference set (4 entries):
INSERT INTO assay_data (binder, category) VALUES
  ('GLS3000 P95S (antibody, name in Kabat numbering, V domains shown, one-arm format as m2) VH: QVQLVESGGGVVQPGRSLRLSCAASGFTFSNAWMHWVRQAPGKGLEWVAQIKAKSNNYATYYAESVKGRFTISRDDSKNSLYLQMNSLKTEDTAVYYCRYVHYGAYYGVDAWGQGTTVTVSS VL: DIVMTQSPLSLPVTPGEPASISCRSSQSLVHSNRNTYLHWYQQKPGQAPRLLIYKVSNRFSGVPDRFSGSGSGTDFTLKISRVEAEDVGVYYCGQGTQVSYTFGQGTKLEIK', 'label 1'),
  ('GLS3000 Y32F (antibody, name in Kabat numbering, V domains shown, one-arm format as m2) VH: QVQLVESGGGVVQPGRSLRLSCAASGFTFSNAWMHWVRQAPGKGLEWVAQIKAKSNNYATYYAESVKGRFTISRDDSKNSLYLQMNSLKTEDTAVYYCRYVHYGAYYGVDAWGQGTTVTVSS VL: DIVMTQSPLSLPVTPGEPASISCRSSQSLVHSNRNTFLHWYQQKPGQAPRLLIYKVSNRFSGVPDRFSGSGSGTDFTLKISRVEAEDVGVYYCGQGTQVPYTFGQGTKLEIK', 'label 0'),
  ('GLS3000 R54T (antibody, name in Kabat numbering, V domains shown, one-arm format as m2) VH: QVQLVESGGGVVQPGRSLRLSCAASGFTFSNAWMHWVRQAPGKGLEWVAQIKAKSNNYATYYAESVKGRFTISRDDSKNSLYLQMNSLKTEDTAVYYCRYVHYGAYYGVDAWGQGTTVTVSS VL: DIVMTQSPLSLPVTPGEPASISCRSSQSLVHSNRNTYLHWYQQKPGQAPRLLIYKVSNTFSGVPDRFSGSGSGTDFTLKISRVEAEDVGVYYCGQGTQVPYTFGQGTKLEIK', 'label 1'),
  ('GLS3000 S56F (antibody, name in Kabat numbering, V domains shown, one-arm format as m2) VH: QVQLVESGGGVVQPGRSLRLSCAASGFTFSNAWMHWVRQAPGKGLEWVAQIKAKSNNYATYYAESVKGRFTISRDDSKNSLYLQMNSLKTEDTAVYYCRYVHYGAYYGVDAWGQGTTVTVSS VL: DIVMTQSPLSLPVTPGEPASISCRSSQSLVHSNRNTYLHWYQQKPGQAPRLLIYKVSNRFFGVPDRFSGSGSGTDFTLKISRVEAEDVGVYYCGQGTQVPYTFGQGTKLEIK', 'label 1');

Query binder follows.
I'd appreciate it if you could say whether GLS3000 H34F (antibody, name in Kabat numbering, V domains shown, one-arm format as m2) VH: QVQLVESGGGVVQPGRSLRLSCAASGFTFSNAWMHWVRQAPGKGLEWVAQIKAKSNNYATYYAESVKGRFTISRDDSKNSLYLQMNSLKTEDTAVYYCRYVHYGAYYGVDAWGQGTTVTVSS VL: DIVMTQSPLSLPVTPGEPASISCRSSQSLVHSNRNTYLFWYQQKPGQAPRLLIYKVSNRFSGVPDRFSGSGSGTDFTLKISRVEAEDVGVYYCGQGTQVPYTFGQGTKLEIK has ratio of amounts bound (vs GLS3000) at least equal to 0.4. label 0
